Parameter: TGI. Scope: all listed entries.
Tested on: U251 CNS
Experiment: NCI tumour cell line growth inhibition, 48 h
Report as a plain number; the unit µM is understood.

Q: Enter reported TGI observed with U251 CNS for COc1cccc2c1C(=O)c1ccc3cc(CO)cc(O)c3c1C2=O
A: 5.41

Q: Enter reported TGI observed with U251 CNS for NC(=NC1CCCCCC1)c1ccc(N2CCN(c3ccc(C(N)=NC4CCCCCC4)cc3)CC2)cc1
A: 11.3

Q: Enter reported TGI observed with U251 CNS for Cc1c(C(=O)CC(=O)C(=O)Nc2cccc(C(F)(F)F)c2)[n+](=O)c2ccccc2n1[O-]
A: 11

====

Tested on: SK-MEL-28 melanoma
Experiment: NCI tumour cell line growth inhibition, 48 h
Parameter: TGI. Scope: all listed entries.

Observe how each entry below is paired with its result.
compound: CC1CSc2nc3[nH]c(=S)[nH]c3c(=O)n2C1 (stereo not drawn)
result: > 100 µM
--
compound: C/C(=C1/N=C(c2cc([N+](=O)[O-])ccc2Cl)N(C2=CC=C(Cl)CC2)C1=O)c1cc2ccccc2oc1=O
result: > 100 µM

Would you kindly look at the next entry?
Q: Look up TGI for this compound: CSc1nc(-c2cc3c(c(SC)n2)CCC3)cc2c1CCC2
A: > 100 µM

====

Tested on: UO-31 renal
Assay: NCI tumour cell line growth inhibition, 48 h
Parameter: TGI. Scope: all listed entries.

Observe how each entry below is paired with its result.
compound: NC1CCC[C@@H](O)[C@H]1O (stereo partly drawn)
target entity: UO-31 renal
metric name: TGI
result: > 100 µM
--
compound: Cc1cc(N/N=C/c2nc(-c3ccccc3)oc2C)c2cc(Cl)ccc2n1
target entity: UO-31 renal
metric name: TGI
result: 3.07 µM
--
compound: N#CSCC1CC(O)(c2ccccc2)C(c2ccccc2)C(c2ccc(F)cc2)O1 (stereo not drawn)
target entity: UO-31 renal
metric name: TGI
result: 11.9 µM

Q: Look up TGI for this compound: Cc1ccc(NS(=O)(=O)c2cc(C)ccc2C)cc1
A: 72 µM

Q: Look up TGI for this compound: Cc1ccc(NC2=C(Sc3ccc(Cl)cc3)C(=O)N(Cc3ccccc3)C2=O)cc1Cl
A: 22.1 µM

====

Parameter: TGI. Scope: all listed entries.
Test system: PC-3 prostate
Test: NCI tumour cell line growth inhibition, 48 h

Observe how each entry below is paired with its result.
compound: CNC(=O)CNC(=O)CCC(=O)N(C)C
TGI: > 100 µM

compound: CCCCCC(/C=N/NC(N)=S)C(O)(C(F)(F)F)C(F)(F)F (stereo not drawn)
TGI: > 10 µM

Q: Enter reported TGI observed with PC-3 prostate for C=CCOc1ccc(C2c3c([nH][nH]c3=O)CC(C)(O)C2C(=O)OC)cc1OC (stereo not drawn)
A: > 100 µM

====

Test system: U251 CNS
Test: NCI tumour cell line growth inhibition, 48 h
metric name: TGI

compound: COc1cc(-c2cn(-c3ccc(Cl)cc3)c(=O)[nH]2)cc(OC)c1OC
target entity: U251 CNS
TGI: > 100 µM
--
compound: CN(C)CCCNC(=O)CNC(=O)c1cc(NC(=O)c2cc(NC(=O)c3cc(NC(=O)CCNC(=O)c4cc(NC(=O)c5cc(NC(=O)c6nccn6C)cn5C)cn4C)cn3C)cn2C)cn1C
target entity: U251 CNS
TGI: > 100 µM

Q: Look up TGI for this compound: C=CCOc1ccc(C2c3c([nH][nH]c3=O)CC(C)(O)C2C(=O)OC)cc1OC (stereo not drawn)
A: > 100 µM

====

Tested on: UO-31 renal
Assay: NCI tumour cell line growth inhibition, 48 h
metric name: TGI

Observe how each entry below is paired with its result.
compound: Cc1ccc(C(=O)N/N=C/c2cccc(Oc3ccccc3)c2)cn1
TGI: > 100 µM

compound: CC1=NN(C(=O)CC(=O)Nc2cccc(Cl)c2)C(=O)C1N=Nc1ccc(S(=O)(=O)c2ccc(N=NC3C(=O)N(C(=O)CC(=O)Nc4cccc(Cl)c4)N=C3C)cc2)cc1 (stereo not drawn)
TGI: > 100 µM

compound: C/C=C/OC1C(C2COC(C)(C)O2)OC2OC(C)(C)OC21 (stereo not drawn)
TGI: > 100 µM

compound: O=c1[nH]nc2c3c(cccc13)NC(CN1Cc3ccccc3C1)=N2
TGI: > 100 µM

compound: CO/N=C1/C(n2[nH]c(=O)n(-c3ccccc3)c2=O)C2C=CC1n1c(=O)n(-c3ccccc3)c(=O)n12 (stereo not drawn)
TGI: > 100 µM

compound: O/N=C1\CC2(N3CCOCC3)CCC1(Cc1ccccc1)CC2
TGI: > 100 µM

Q: Look up TGI for this compound: CNC=O
A: > 10000 µM

Q: Look up TGI for this compound: O=C1CNc2cc(N3CCN(c4cccc(C(F)(F)F)c4)CC3)ccc2N1
A: > 100 µM

Q: Look up TGI for this compound: COC1CC(OS(=O)(=O)c2ccc(C)cc2)C(OS(=O)(=O)c2ccc(C)cc2)C(COS(=O)(=O)c2ccc(C)cc2)O1 (stereo not drawn)
A: 12.1 µM

Q: Look up TGI for this compound: C=C1C(C[C@@H]2O[C@H]3C[C@H]4O[C@@]5(C[C@@H]6O[C@]7(C[C@H](C)[C@@H]8O[C@@H]9CC(C(O)CO)O[C@@H]9C[C@@H]8O7)C[C@H](C)[C@@H]6O5)C[C@H]4O[C@H]3[C@H](C)[C@H]2O)O[C@@H](CC[C@@H]2O[C@@H](CC[C@@]34CC5O[C@H]6C(O[C@H]7CC[C@H](CC(=O)OC)O[C@@H]7[C@@H]6O3)[C@H]5O4)CC2=C)C[C@H]1C (stereo partly drawn)
A: > 1 µM

Q: Look up TGI for this compound: COc1ccc(/C=C2\CNC/C(=C\c3ccc(OC)cc3)C2=O)cc1
A: > 100 µM

Q: Look up TGI for this compound: O=Cc1[nH]c2ccccc2c1Br
A: 97 µM

Q: Look up TGI for this compound: CC(=O)NC1CCC(NC(=O)OC(C)(C)C)C(NC(=O)OC(C)(C)C)C1 (stereo not drawn)
A: > 100 µM

Q: Look up TGI for this compound: c1ccc2[nH]c(-c3ccc(OCCCCCOc4ccc(-c5nc6ccccc6[nH]5)cc4)cc3)nc2c1
A: 3.67 µM

Q: Look up TGI for this compound: COC(=O)[C@H]1ON2O[C@@H](O[C@H]3CCCC[C@@H]3C(C)(C)c3ccccc3)C[C@@H]3CC[C@H]1[C@@]32C
A: > 100 µM

Q: Look up TGI for this compound: O=C(N/N=C/c1ccc(O)cc1O)c1ccc(Nc2ccnc(C(F)(F)F)c2)cc1
A: > 100 µM

Q: Look up TGI for this compound: CCS(=O)(=O)c1ccc(OC)c(Nc2nccc(N(C)c3ccc4c(C)[nH]nc4c3)n2)c1
A: 10.9 µM

Q: Look up TGI for this compound: COC[C@H]1OC(=O)c2coc3c2[C@@]1(C)C1=C(C3=O)[C@@H]2CCC(=O)[C@@]2(C)C[C@H]1OC(C)=O
A: > 72.8 µM
